Every entry's value here was drawn from the supplement of paper PMC13380429.

Test system: Vero E6
Assay: cell viability relative to DMSO; higher = less toxic
Details: 72 h; 1000 nM
MEASUREMENT_TYPE: cell viability (%)

>>> recorded_measurement("CN1[C@@H]2CC[C@H]1C[C@@H](OC(=O)c1cc(Cl)cc(Cl)c1)C2")
99.5
>>> recorded_measurement("O=C1C=CC[C@@H]2[C@H]3CCCN4CCC[C@@H](CN12)[C@@H]34")
109
>>> recorded_measurement("O=C1c2ccccc2-c2c(NCCc3ccccc3)c(=O)[nH]c3cccc1c23")
69.1
>>> recorded_measurement("O[C@@H]1CCCC[C@H]1N1CCC(c2ccccc2)CC1 (racemic)")
101
>>> recorded_measurement("C=CCOc1ccccc1OCC(O)CNC(C)C (stereo not given)")
106

###

System: Caco-2
Assay: cell viability relative to DMSO; higher = less toxic
Details: 72 h; 10000 nM
MEASUREMENT_TYPE: cell viability (%)

>>> recorded_measurement("Cc1ccc(NC(=O)c2cccc(N(C)C)c2)cc1NC(=O)c1ccc(O)cc1")
81.8
>>> recorded_measurement("CC(=O)[C@H]1CC[C@H]2[C@@H]3CC[C@H]4C[C@H](O)CC[C@]4(C)[C@H]3C(=O)C[C@]12C")
104
>>> recorded_measurement("O=C(O)P(=O)(O)O")
102
>>> recorded_measurement("Cc1ccccc1CN1C(=O)C2=C(CCN(Cc3ccccc3)C2)N2CCN=C12")
44.1
>>> recorded_measurement("O=C(NCCCCN1CCN(c2cccc(Cl)c2Cl)CC1)c1ccc2c(c1)Cc1ccccc1-2")
103
>>> recorded_measurement("C=C1CCN([C@H](C)[C@](O)(Cn2cncn2)c2ccc(F)cc2F)CC1")
78.3
>>> recorded_measurement("CCCN[C@H]1CCc2nc(N)sc2C1 [pramipexole]")
107
>>> recorded_measurement("CNCC[C@@H](Oc1ccccc1C)c1ccccc1")
92.8
>>> recorded_measurement("Cc1noc(NS(=O)(=O)c2ccc(N)cc2)c1C")
103
>>> recorded_measurement("CN1C(=O)c2c(nn(Cc3ccc(-c4cccc(F)n4)cc3)c2Nc2ccccc2)N2C1=N[C@@H]1CCC[C@@H]12")
117
>>> recorded_measurement("C[C@]12Cc3c[nH]nc3C[C@@H]1CC[C@@H]1[C@@H]2CC[C@@]2(C)[C@H]1CC[C@]2(C)O")
91.4
>>> recorded_measurement("CCC(=O)O[C@]1(C(=O)CCl)[C@@H](C)C[C@H]2[C@@H]3C[C@H](F)C4=CC(=O)C=C[C@]4(C)[C@@]3(F)[C@@H](O)C[C@@]21C [halobetasol-propionate]")
99.4
>>> recorded_measurement("O=C(O)c1cn(C2CC2)c2cc(N3CCNCC3)c(F)cc2c1=O")
79.1
>>> recorded_measurement("COc1ccc(NC(=O)c2ccc(-c3ccc(-c4noc(C)n4)cc3C)cc2)cc1N1CCN(C)CC1")
42.8
>>> recorded_measurement("C=CCN(C)CCCCCCOc1ccc(C(=O)c2ccc(Br)cc2)c(F)c1")
45.9
>>> recorded_measurement("FC(F)(F)c1ccccc1-n1ccnc1")
108
>>> recorded_measurement("O=C(O)/C=C\\c1c[nH]cn1 [cis-Urocanic acid]")
98.1
>>> recorded_measurement("c1ccc2c(Cc3c[nH]c4ccccc34)c[nH]c2c1")
102
>>> recorded_measurement("COc1ccc(C(=O)N2CCCc3cc(C4=NNC(=O)SC4C)ccc32)cc1OC (centres undefined)")
71.5

###

Catalogue of cell viability readings, one per entry.
Tested on: U2OS
Assay: cell viability relative to DMSO; higher = less toxic
Conditions: 72 h; 1 nM
MEASUREMENT_TYPE: cell viability (%)

>>> recorded_measurement("C[C@]12Cc3c[nH]nc3C[C@@H]1CC[C@@H]1[C@@H]2CC[C@@]2(C)[C@H]1CC[C@]2(C)O [stanozolol]")
98.5
>>> recorded_measurement("CN(C)C(=N)NCCC[C@H](N)C(=O)O [asymmetrical-dimethylarginine]")
100
>>> recorded_measurement("COc1cc2c(cc1OC)[C@@]13CCN4CC5=CCO[C@H]6CC(=O)N2[C@H]1[C@H]6[C@H]5C[C@H]43 [brucine]")
96.8
>>> recorded_measurement("CCc1nn(CCCN2CCN(c3cccc(Cl)c3)CC2)c(=O)n1CCOc1ccccc1 [nefazodone]")
106
>>> recorded_measurement("CC(N)Cc1ccc(O)cc1 (centres undefined) [hydroxyamphetamine]")
98.6
>>> recorded_measurement("CN1CCCCC1Cn1cc(C(=O)c2cc([N+](=O)[O-])ccc2I)c2ccccc21 (centres undefined) [AM-1241]")
94
>>> recorded_measurement("O=C(O)CCNc1cc(N2CCc3ccccc3CC2)nc(-c2cccnc2)n1 [GSK-J2]")
98.5
>>> recorded_measurement("COc1ccc(CNC(=O)c2sc3nc(C)cc(C)c3c2N)cc1")
94.1
>>> recorded_measurement("COC(=O)[C@H](Cc1cccc(C(=N)N)c1)[C@@H](C)NC(=O)c1ccc(-c2cc[n+]([O-])cc2)cc1 [otamixaban]")
99.1

###

Test system: U2OS
Test: cell viability relative to DMSO; higher = less toxic
Conditions: 72 h; 10 nM
Catalogue of cell viability readings, one per entry.
MEASUREMENT_TYPE: cell viability (%)

>>> recorded_measurement("C[N+](C)(C)CC[N+]1(C)Cc2c(Cl)c(Cl)c(Cl)c(Cl)c2C1 [chlorisondamine-diiodide]")
96.2
>>> recorded_measurement("CCN(c1nc(N)c(C(=O)NC(=N)N)nc1Cl)C(C)C [EIPA]")
100
>>> recorded_measurement("CC1(C)O[C@@H]2C[C@H]3[C@@H]4C[C@H](F)C5=CC(=O)C=C[C@]5(C)[C@H]4[C@@H](O)C[C@]3(C)[C@]2(C(=O)CO)O1 [flunisolide]")
93.9
>>> recorded_measurement("O=[N+]([O-])c1ccc2c(c1)S(=O)(=O)C=C2 [stattic]")
95.6
>>> recorded_measurement("O=C(NCCO)c1cc(C(=O)NCCO)cc(C(=O)NCCO)c1 [LM-22A4]")
97.7
>>> recorded_measurement("CN1CC[C@@H](c2c(O)cc(O)c3c(=O)cc(-c4ccccc4Cl)oc23)[C@@H]1CO [P276-00]")
100
>>> recorded_measurement("CNCC[C@@H](Oc1ccccc1C)c1ccccc1 [atomoxetine]")
97.5
>>> recorded_measurement("N[C@@H](Cc1cc(-c2ccc(Cl)cc2Cl)cc(CP(=O)(O)O)c1O)C(=O)O [SDZ-220-040]")
98.6

###

System: HepG2
Test: cell viability relative to DMSO; higher = less toxic
Details: 72 h; 1000 nM
Catalogue of cell viability readings, one per entry.
MEASUREMENT_TYPE: cell viability (%)

>>> recorded_measurement("O=C(NC[C@H](O)CO)c1ccncc1Nc1ccc(I)cc1F")
20.5
>>> recorded_measurement("CN1CC[C@@H](c2c(O)cc(O)c3c(=O)cc(-c4ccccc4Cl)oc23)[C@@H]1CO")
6.6
>>> recorded_measurement("C[N+]1(C)CCCC(OC(=O)C(O)(c2ccccc2)c2ccccc2)C1 (stereo not given) [mepenzolate]")
91.9
>>> recorded_measurement("C=C(NC(=O)C(=C)NC(=O)c1csc(C2=N[C@@H]3c4csc(n4)[C@H]4NC(=O)c5csc(n5)[C@H]([C@](C)(O)[C@@H](C)O)NC(=O)[C@H]5CSC(=N5)/C(=C/C)NC(=O)[C@H]([C@@H](C)O)NC(=O)c5csc(n5)[C@]3(CC2)NC(=O)[C@H](C)NC(=O)C(=C)NC(=O)[C@H](C)NC(=O)[C@H]([C@@H](C)CC)N[C@@H]2C=Cc3c([C@H](C)O)cc(nc3[C@H]2O)C(=O)O[C@@H]4C)n1)C(N)=O")
87.6
>>> recorded_measurement("c1ccc2c(Cc3c[nH]c4ccccc34)c[nH]c2c1")
86.8
>>> recorded_measurement("CCCCCCc1ccc(O)cc1O.Nc1c2ccccc2nc2ccccc12")
77.9
>>> recorded_measurement("C=C[C@@]1(C)CC(=O)[C@]2(O)[C@@]3(C)[C@@H](O)CCC(C)(C)[C@@H]3[C@H](OC(=O)CCN(C)C)[C@H](OC(C)=O)[C@@]2(C)O1 [colforsin-daproate]")
100
>>> recorded_measurement("COc1cc(NS(=O)(=O)c2ccc(N)cc2)nc(OC)n1")
98.9
>>> recorded_measurement("O=C1C(Cl)=C(N2CCOCC2)C(=O)N1c1ccc(Cl)c(Cl)c1")
97.3
>>> recorded_measurement("CCc1cccc(CC)c1NC(=O)CN(CC(=O)O)CC(=O)O")
95.9
>>> recorded_measurement("COC1CCN(c2cccc(-c3cc(NC(C)=O)nc(-n4nc(C)cc4C)n3)n2)CC1")
90.9
>>> recorded_measurement("Nc1cc(C(F)(F)F)c(-c2nc(N3CCOCC3)nc(N3CCOCC3)n2)cn1")
59.4
>>> recorded_measurement("CCOC(=O)Nc1cc(-c2ccc(C)c(NS(C)(=O)=O)c2)nn2c(C)nnc12")
60.8
>>> recorded_measurement("O=c1[nH]c2ccccc2n1C1CCN(CCCC(c2ccc(F)cc2)c2ccc(F)cc2)CC1 [pimozide]")
85.2
>>> recorded_measurement("C=C[C@@H]1C[C@]1(NC(=O)[C@@H]1C[C@@H]2CN1C(=O)[C@H](C(C)(C)C)NC(=O)O[C@@H]1C[C@H]1CCCCCc1nc3ccc(OC)cc3nc1O2)C(=O)NS(=O)(=O)C1CC1")
103
